Just for reference, paper PMC6269799 is where these values come from.

# protocol: Cytotoxic effect on murine macrophages (Alamar Blue assay)
# Format: cell-based
# measurement.context: mouse, J774 macrophage cell line; 10 μM; murine macrophages J774, 21 h after the treatment
assay.endpoint: viability at 21 h, 10 µM
Express your answer as a number followed by its unit.

Here is how some molecules turned out for viability at 21 h, 10 µM.
Cn1c([N+](=O)[O-])cnc1-c1c(-c2ccccc2)nc(-c2ccc(F)cc2)n1O | 98.9%
Cn1c([N+](=O)[O-])cnc1-c1c(-c2ccccc2)nc(-c2ccc(Cl)cc2)n1O | 97.6%

Would you kindly look at the next entry?
What does the record list as viability at 21 h, 10 µM for Cn1c([N+](=O)[O-])cnc1-c1c(-c2ccccc2)nc(-c2ccc(Br)cc2)n1O ?
97.6%

###

Field: melting point. Provide a value for each of the compounds that follow.

Here is how some compounds turned out for melting point.
Cn1c([N+](=O)[O-])cnc1-c1c(-c2ccccc2)nc(-c2ccccc2)n1O | 217 to 218 °C
Cn1c([N+](=O)[O-])cnc1-c1c(-c2ccccc2)nc(-c2ccc([N+](=O)[O-])cc2)n1O | 361 to 362 °C

# batch size: 2; output melting point per entry
1. Cn1c([N+](=O)[O-])cnc1-c1c(-c2ccccc2)nc(-c2ccc(Cl)cc2)n1O
2. COc1ccc(-c2nc(-c3ccccc3)c(-c3ncc([N+](=O)[O-])n3C)n2O)cc1

1. 249 to 250 °C
2. 218 to 219 °C

###

# protocol: Cytotoxic effect on murine macrophages (Alamar Blue assay)
# Format: cell-based
# measurement.context: mouse, J774 macrophage cell line; 1 μM; murine macrophages J774, 21 h after the treatment
Field: viability at 21 h, 1 µM. Provide a value for each of the compounds that follow.
Answers are plain numbers, in %.

Here is how some compounds turned out for viability at 21 h, 1 µM.
Cn1c([N+](=O)[O-])cnc1-c1c(-c2ccccc2)nc(-c2ccc(F)cc2)n1O | 94.2
Cn1c([N+](=O)[O-])cnc1-c1c(-c2ccccc2)nc(-c2ccc(Br)cc2)n1O | 97.3

Would you kindly look at the next entry?
What does the record list as viability at 21 h, 1 µM for Cn1c([N+](=O)[O-])cnc1-c1c(-c2ccccc2)nc(-c2ccc(Cl)cc2)n1O ?
95.7
